// values below are reported scaled log2 fold change
B1: library; numbered along this chain (parent)
chain: MAAAGGARLLRAASAVLGGPAGRWLHHAGSRAGSSGLLRNRGPGGSAEASRSLSVSARARSSSEDKITVHFINRDGETLTTKGKVGDSLLDVVVENNLDIDGFGACEGTLACSTCHLIFEDHIYEKLDAITDEENDMLDLAYGLTDRSRLGCQICLTKSMDNMTVRVPETVADARQSIDVGKTS

Variants of: B1
EXPERIMENT: scaled log2 fold change in cell abundance, elesclomol vs control (0 = silent mean, 1 = nonsense mean) (scaled log2 ratio); higher = higher viability under elesclomol (loss of FDX1 cuproptosis function);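 note: variant abundance is its share of total variant reads in each endpoint sample, from next-generation sequencing of the integrated ORF PCR-amplified out of genomic DNA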
ASSAY CONDITIONS: with HEK293T FDX1 KO; elesclomol 40 nM; glucose 10 mM; 11 days
QUANTITY: scaled log2 fold change

MUTANT ID	QUANTITATIVE READOUT
V165C	0.944
T78K	-1.09
T145Y	0.0425
R51A	-0.204
A3K	0.17
Y124W	-0.22
A47I	0.523
G5T	0.915
N97M	-0.11
H26D	0.193
G44I	0.323
H116D	-0.115
R51L	-0.247
E134F	1.01
L17D	0.653
S113D	0.644

The reported measurements were obtained from the supplement of paper PMC12855868.
